EXPERIMENTAL_DETAILS: viability loss with TRAIL in NB7+C8 cells, primary screen, TRAIL sensitizer project, cell-based, ATPlite luminescence (AID 624354)
CONDITIONS: at 10 µM
Among all 360,000 compounds or so, about 3,800 (1.1%) were called active.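 Rule for the calls: active = compounds causing at least 50% loss of cell viability in the single-dose screen, relative to plate controls; inactive = the rest.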 The sample holds actives, similar compounds and a random draw of the others, so the mix is not that of the screen.
Lab note: assign the record to one of active, inactive

# MOLECULE, ANSWER_LABEL
measured = [
    ("COc1ccc(Br)cc1CN(C)C(=O)C1CC(=O)N(C2CCCC2)C1 (stereo unspecified)", "inactive"),
    ("O=C(Cc1nc2ccccc2[nH]c1=O)c1ccc(Cl)cc1", "active"),
    ("COc1ccc(CC(N)c2csc(NC(=O)Cc3ccccc3)n2)cc1 (stereo unspecified)", "inactive"),
    ("Cc1[nH]n(-c2ccccc2)c(=O)c1/C=N/NC(=O)c1ccoc1C", "active"),
]

Task item: Hi, sorry to bother you, what did the test record for Cc1occc1C(=O)N/N=C/c1ccc(-c2cccc([N+](=O)[O-])c2)o1 ?
Reply: inactive

Task item: Hi, sorry to bother you, what did the test record for CS(=O)(=O)N(Cc1ccc(Cl)cc1)c1ccc(C(=O)NCCSCc2ccco2)cc1 ?
Reply: inactive

Task item: Hi, sorry to bother you, what did the test record for COc1ccc(CC(N)c2csc(NC(=O)NC(c3ccccc3)c3ccccc3)n2)cc1 (stereo unspecified) ?
Reply: inactive

* * *

EXPERIMENTAL_DETAILS: viability loss with TRAIL in NB7+C8 cells, primary screen, TRAIL sensitizer project, cell-based, ATPlite luminescence (AID 624354)
CONDITIONS: at 10 µM, hits give high values
Hit rate of the full screen: of about 360,000 compounds, about 3,800 (1.1%) were called active. The full list was thinned out, with actives kept by preference.
READOUT: inhibition (viability loss, TRAIL sensitization) (%)
One number for each entry, in %.

Hi team, please reply with inhibition (viability loss, TRAIL sensitization) for each item in this list.
1. CC1(C(=O)NS(=O)(=O)c2ccccc2)CCN1C(=O)Cc1ccc(-c2ccccc2)cc1 (stereo unspecified)
2. COc1cccc(NC(=O)COC(=O)c2ccc3ccccc3n2)c1

Reply:
1. 4.55
2. -11.3

Hi team, please reply with inhibition (viability loss, TRAIL sensitization) for each item in this list.
1. CCOC(=O)C(NS(=O)(=O)c1ccc(C)cc1)(C(F)(F)F)P(=O)(OCC(C)C)OCC(C)C (stereo unspecified)
2. COC(=O)N(NC(=O)C(O)(C(C)C)C(C)C)c1ccccc1
3. CCOc1cccc(/C=C/c2ccc3ccccc3n2)c1OC(C)=O
4. CC(C)=CCC/C(C)=C/C(=O)O
5. CC(=O)OCC(C)n1c(=O)c2ccccc2n1C(C)=O (stereo unspecified)

Reply:
[27.5, 21.8, 47.3, -7.95, -3.49]

Hi team, please reply with inhibition (viability loss, TRAIL sensitization) for each item in this list.
1. CCCNC(=O)C1(C)CCN1C(=O)Cc1ccc(-c2ccccc2)cc1 (stereo unspecified)
2. Nc1nc2ncccn2c1-c1ccccc1
3. CN(C)c1nc(N)nc(CSc2nnnn2-c2cccc3ccccc23)n1
4. COc1cccc(/C=C/c2ccc3ccccc3n2)c1OC(C)=O

Reply:
1. 5.54
2. -21.7
3. 40.6
4. 65.1
